assay: Cytotoxicity against human SF295 cells after 72 hrs by MTT assay; type: functional, cell-based, SF-295; conditions: sf-295
# reported pIC50; entries follow
Notebook: values listed as pIC50 are -log10 of the concentration (mol/L).

The following compounds have reported results that may help.
O=C1C(O)=C(C(NCc2ccccc2)c2cc(Br)ccc2O)C(=O)c2ccccc21 (stereo unspecified)	4.97
O=C1C(O)=C(C(NCc2ccccc2)c2ccccc2O)C(=O)c2ccccc21 (stereo unspecified)	4.94

The record that follows has no pIC50 shown yet.
// field: pIC50; key: Cc1ccc(O)c(C(NCc2ccccc2)C2=C(O)C(=O)c3ccccc3C2=O)c1 (stereo unspecified) ; value = 4.84

====

assay: Cytotoxicity against human SF295 cells after 72 hrs by MTT assay; format: functional, cell-based, SF-295; conditions: Homo sapiens, SF-295, 72 h
Listing of recorded IC50 by entry.

CCCCNC(C1=C(O)C(=O)c2ccccc2C1=O)c1cc(Br)ccc1O (centres undefined)	21.4 µM
CCCCNC(C1=C(O)C(=O)c2ccccc2C1=O)c1ccc(Cl)cc1Cl (centres undefined)	> 40 µM
Cc1ccc(NC(C2=C(O)C(=O)c3ccccc3C2=O)c2ccccn2)cc1 (centres undefined)	> 40 µM
CC(C)(C)OC(=O)NCCCNC(C1=C(O)C(=O)c2ccccc2C1=O)c1ccc([N+](=O)[O-])cc1 (centres undefined)	> 40 µM
CCCCNC(C1=C(O)C(=O)c2ccccc2C1=O)c1ccc([N+](=O)[O-])cc1 (centres undefined)	> 40 µM
COc1cccc2c1C(=O)c1c(O)c3c(c(O)c1C2=O)C[C@@](O)(C(=O)CO)C[C@@H]3O[C@H]1C[C@H](N)[C@H](O)[C@H](C)O1	0.39 µM
CC(C)(C)OC(=O)NCCCNC(C1=C(O)C(=O)c2ccccc2C1=O)c1ccc(Cl)cc1Cl (centres undefined)	> 40 µM
CCCCCCCCCCNC(C1=C(O)C(=O)c2ccccc2C1=O)c1ccccc1O (centres undefined)	23.1 µM

Proceeding to the next molecule to report its IC50.
Lookup result for CC(C)(C)OC(=O)NCCNC(C1=C(O)C(=O)c2ccccc2C1=O)c1ccccc1O (centres undefined) ; measured IC50: 15.9 µM

====

assay: Cytotoxicity against human HL60 cells after 72 hrs by MTT assay; format: functional, cell-based, HL-60; conditions: Homo sapiens, HL-60, 72 h
quantity kind: IC50

O=C1C(O)=C(C(NCCCCl)c2ccccn2)C(=O)c2ccccc21 (stereo not given)	> 40 µM
O=C1C(O)=C(C(NCc2ccccc2)c2ccccc2O)C(=O)c2ccccc21 (stereo not given)	3.9 µM
O=C1C(O)=C(C(NCCCCl)c2cccc(O)c2)C(=O)c2ccccc21 (stereo not given)	> 40 µM
CCCCCCCNC(C1=C(O)C(=O)c2ccccc2C1=O)c1cccc(O)c1 (stereo not given)	> 40 µM
CC(C)(C)OC(=O)NCCCNC(C1=C(O)C(=O)c2ccccc2C1=O)c1ccccc1 (stereo not given)	> 40 µM

# context switch: different compound, same IC50
get_value(item= CCCCCCCNC(C1=C(O)C(=O)c2ccccc2C1=O)c1ccccn1 (stereo not given) , readout=IC50) returns 1.8 µM

====

Reported pIC50 is given for each of the following compounds.
test: Cytotoxicity against human SF295 cells after 72 hrs by MTT assay; type: functional, cell-based, SF-295; settings: Homo sapiens, SF-295, 72 h
pIC50: −log10 of the molar value.

CCCCCCCCCCNC(C1=C(O)C(=O)c2ccccc2C1=O)c1cccc(O)c1 (stereo not drawn)	< 4.40
O=C1C(O)=C(C(NCCCCl)c2ccc([N+](=O)[O-])cc2)C(=O)c2ccccc21 (stereo not drawn)	< 4.40
Cc1ccc(O)c(C(NCc2ccccc2)C2=C(O)C(=O)c3ccccc3C2=O)c1 (stereo not drawn)	5.07

# pIC50 (compound: CCCCCCCNC(C1=C(O)C(=O)c2ccccc2C1=O)c1ccc([N+](=O)[O-])cc1 (stereo not drawn) ) is < 4.40

Lab note: CCCCNC(C1=C(O)C(=O)c2ccccc2C1=O)c1ccccn1 (stereo not drawn) gave pIC50 of 5.02

Per the records, this compound ( CC(C)(C)OC(=O)NCCNCC1=C(O)C(=O)c2ccccc2C1=O ) has pIC50 equal to < 4.40

According to the records, this compound O=C1C(O)=C(C(NCCCCl)c2ccccc2O)C(=O)c2ccccc21 (stereo not drawn) displays pIC50 of 4.76

Record CCCCCCCNC(C1=C(O)C(=O)c2ccccc2C1=O)c1cc(Br)ccc1O (stereo not drawn) . Reported pIC50: < 4.40

Input O=C1C(O)=C(C(Nc2ccccc2)c2ccccn2)C(=O)c2ccccc21 (stereo not drawn) . Output pIC50: < 4.40
